Values were extracted from paper PMC5656653.

Experiment: Biodistribution experiments in normal mice after i.v. injection
Assay type: in vivo
Details: male, ddY, mouse, in vivo, iv, total radioactivity, mice, i.v., 180 min after injection, mean (SD), footnote b; read-out: Biodistribution of radioactivity, Stomach
Protocol: Experiments with animals were conducted in strict accordance with the Guidelines for the Care and Use of Laboratory Animals of Kanazawa University. […] Complete left femurs were isolated as representative bone samples, radioactivity was determined using gamma counters (AccuFLEX γ ARC-8001 in the case of ^18F, Hitachi, Ltd.), and background counts and physical decay were corrected during counting.
Where a SMILES comes first, the peptide text is derived from it. [ ]: non-standard residue; d: D form. The star is where a group is joined. DOTA = O=C(O)CN1CCN(CC(=O)O)CCN(CC(=O)*)CCN(CC(=O)O)CC1

| compound | unit-annotation | tissue uptake dose at 3 h |
| --- | --- | --- |
| O=C(O)C[C@@H](NC(=O)[C@@H](CC(=O)O)NC(=O)[C@@H](CC(=O)O)NC(=O)[C@@H](CC(=O)O)NC(=O)[C@@H](CC(=O)O)NC(=O)[C@@H](CC(=O)O)NC(=O)[C@@H](CC(=O)O)NC(=O)[C@@H](CC(=O)O)NC(=O)[C@@H](CC(=O)O)NC(=O)[C@@H](CC(=O)O)NC(=O)[C@@H](CC(=O)O)NC(=O)CN1CCN(CC(=O)O)CCN(CC(=O)O)CCN(CC(=O)O)CC1)C(=O)O [^67Ga-DOTA-(D-Asp)11, metal not drawn] ({DOTA}-[dD][dD][dD][dD][dD][dD][dD][dD][dD][dD][dD]-OH) | %ID | 0.02 |
